test: Plasma concentration in C57BL/6 mouse at 30 mg/kg, po measured after 8 hrs by HPLC and mass spectrometry; type: ADME, organism-based
A collection of compounds and their measured concentration at 8 h
measuredQuantity: concentration at 8 h (ng/mL)

chemicalSmiles: O=C(NCCCCCc1cc(Cl)c(CN2CSC[C@H]2C(=O)N2CCN(C3CC3)c3ccccc32)cc1Cl)N1CCN(CP(=O)(O)O)CC1
relationOperator: =
reportedValue: 2.8

chemicalSmiles: CN(C[C@H](O)[C@@H](O)[C@H](O)[C@H](O)CO)C(=O)CCCCc1cc(Cl)c(CN2CSC[C@H]2C(=O)N2CCN(C3CC3)c3ccccc32)cc1Cl
relationOperator: =
reportedValue: 3.6

chemicalSmiles: O=C(O)CNC(=O)CNC(=O)CNC(=O)CCCCc1cc(Cl)c(CN2CSC[C@H]2C(=O)N2CCN(C3CC3)c3ccccc32)cc1Cl
relationOperator: <
reportedValue: 0.5

chemicalSmiles: C[C@@H](NC(=O)[C@@H](C)NC(=O)[C@@H](C)NC(=O)CCCCc1cc(Cl)c(CN2CSC[C@H]2C(=O)N2CCN(C3CC3)c3ccccc32)cc1Cl)C(=O)O
relationOperator: =
reportedValue: 0.6

chemicalSmiles: O=C(NC[C@H](O)[C@@H](O)[C@H](O)[C@H](O)CO)c1ccc(COc2cc(Cl)c(CN3CSC[C@H]3C(=O)N3CCN(C4CC4)c4ccccc43)cc2Cl)cc1
relationOperator: <
reportedValue: 2

chemicalSmiles: O=C(NCCCCCc1cc(Cl)c(CN2CSC[C@H]2C(=O)N2CCN(C3CC3)c3ccccc32)cc1Cl)NCP(=O)(O)O
relationOperator: =
reportedValue: 24.8

---

assay: Plasma concentration in C57BL/6 mouse at 30 mg/kg, po measured after 8 hrs by HPLC and mass spectrometry; assay type: ADME, organism-based
measuredQuantity: concentration at 8 h (ng/mL)

chemicalSmiles: O=C(O)CNC(=O)[C@H](CSSC[C@H](NC(=O)CC[C@H](NC(=O)CCCCc1cc(Cl)c(CN2CSC[C@H]2C(=O)N2CCN(C3CC3)c3ccccc32)cc1Cl)C(=O)O)C(=O)NCC(=O)O)NC(=O)CC[C@H](NC(=O)CCCCc1cc(Cl)c(CN2CSC[C@H]2C(=O)N2CCN(C3CC3)c3ccccc32)cc1Cl)C(=O)O
measuredQuantity: concentration at 8 h
readingUnit: ng/mL
relationOperator: <
reportedValue: 10
--
chemicalSmiles: O=C(CCCCc1cc(Cl)c(CN2CSC[C@H]2C(=O)N2CCN(C3CC3)c3ccccc32)cc1Cl)N[C@@H](C(=O)O)[C@@H](O)[C@H](O)[C@H](O)CO
measuredQuantity: concentration at 8 h
readingUnit: ng/mL
relationOperator: =
reportedValue: 28.1
--
chemicalSmiles: CN(C[C@H](O)[C@@H](O)[C@H](O)[C@H](O)CO)C(=O)CC[C@H](NC(=O)CCCCc1cc(Cl)c(CN2CSC[C@H]2C(=O)N2CCN(C3CC3)c3ccccc32)cc1Cl)C(=O)O
measuredQuantity: concentration at 8 h
readingUnit: ng/mL
relationOperator: =
reportedValue: 2.3
--
chemicalSmiles: O=C(NCCCCCc1cc(Cl)c(CN2CSC[C@H]2C(=O)N2CCN(C3CC3)c3ccccc32)cc1Cl)NC(CO)(CO)CO
measuredQuantity: concentration at 8 h
readingUnit: ng/mL
relationOperator: =
reportedValue: 1.2
